- system-under-test: MK2 (Homo sapiens, UniProt P49137)
- Sequence (P49137 whole entry): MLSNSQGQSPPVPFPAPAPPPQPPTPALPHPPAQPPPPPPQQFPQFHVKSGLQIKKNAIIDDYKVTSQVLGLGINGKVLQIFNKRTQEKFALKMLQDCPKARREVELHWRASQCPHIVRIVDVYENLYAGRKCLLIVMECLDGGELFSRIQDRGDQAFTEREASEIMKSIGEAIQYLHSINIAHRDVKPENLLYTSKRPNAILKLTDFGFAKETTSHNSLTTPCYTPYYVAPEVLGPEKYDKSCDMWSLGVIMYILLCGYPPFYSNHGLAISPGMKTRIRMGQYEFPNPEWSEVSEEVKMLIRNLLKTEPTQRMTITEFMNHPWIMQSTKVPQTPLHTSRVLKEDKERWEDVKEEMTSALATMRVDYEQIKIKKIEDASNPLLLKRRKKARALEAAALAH
- assay-overview: MK2 degradation in human SW1353 cells (MSD, 24 h)
- Assay type: cell-based
- Set-up: endogenous in cells; host or cells: SW-1353 (ATCC HTB-94)
- stated-conditions: read-out: MK2 MSD SW 1353 24 h Dmax %
quantity-name: Dmax

As a guide, the following entries are already answered.
C[C@@H]1CNc2c(sc3ccc4nc(-c5cccc(N6CCN(CCCCCCCc7cccc8c7n(C)c(=O)n8C7CCC(=O)NC7=O)CC6)c5)ccc4c23)C(=O)N1 (stereo partly drawn) [Compound I-95] ... > 75%
C[C@@H]1CNc2c(sc3ccc4nc(N5C6CCC5CN(CC5CCN(c7ccc8c(c7)n(C)c(=O)n8C7CCC(=O)NC7=O)CC5)C6)ccc4c23)C(=O)N1 (stereo partly drawn) [Compound I-434] ... < 50%

Q: Reported Dmax, molecule Cn1c(=O)n(C2CCC(=O)NC2=O)c2cccc(CCCN3CCN(c4ccc(F)c(-c5cc(-c6cc7c([nH]6)CCNC7=O)ccn5)c4)CC3)c21 (stereo not drawn) [Compound I-133] : ____
A: < 50%
